These entries and their values trace back to PubChem BioAssay (NCATS).

assay: Cell Viability qHTS for small molecule stabilizers of the endoplasmic reticulum resident proteome (AID 1508629);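 note: human SH-SY5Y neuroblastoma cells carrying the GLuc-SERCaMP reporter; compound exposure about 46 h in total before the viability read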
condition: cell viability counter-screen, 100 nM thapsigargin for final 4 h
Inconclusive results are not listed.
Lab note - cut at 20% for max response: criterion met if strictly below, criterion not met if not.

# count of solved cases: 2
> print(dat)
                                   molecule           category
1                   Cn1c2c(c3ccccc31)CCNCC2  criterion not met
2  CC(=O)C1=C(O)[C@@H]2[C@@H]3c4c[nH]c5cccc(c45)C[C@@H]3C(C)(C)N2C1=O      criterion met

In: Decide: max response of CN1C2CCC1CC(OC(=O)C1CCC(C(=O)OC3CC4CCC(C3)N4C)(c3ccccc3)c3ccccc31)C2 (stereo not given) strictly below 20%?
Out: criterion met

In: Decide: max response of C[C@H]1CCC/C=C/C2C[C@H](O)C[C@H]2[C@H](O)/C=C/C(=O)O1 (stereo not given in full) strictly below 20%?
Out: criterion not met

In: Decide: max response of CC(C)(O)C1OC2CCC3(C)C(O)(CCC4Cc5c([nH]c6ccccc56)C43C)C2=CC1=O (stereo not given) strictly below 20%?
Out: criterion not met

In: Decide: max response of C[C@@H](C(=O)OC1C[C@H]2CC[C@@H](C1)N2C)c1ccc(Br)cc1 (stereo not given in full) strictly below 20%?
Out: criterion met

In: Decide: max response of CN1CC[C@@]23CCCCC2C1Cc1ccc(O)cc13 (stereo not given in full) strictly below 20%?
Out: criterion not met

In: Decide: max response of `CC(C)[C@@]1(NC(=O)[C@@H]2C[C@H]3c4cccc5[nH]cc(c45)C[C@@H]3N(C)C2)O[C@@]2(O)[C@H]3CCCN3C(=O)[C@H](Cc3ccccc3)N2C1=O` strictly below 20%?
Out: criterion met

In: Decide: max response of CC[C@H](Oc1ccc(Cl)cc1)C(=O)OC1C[C@H]2CC[C@@H](C1)N2C (stereo not given in full) strictly below 20%?
Out: criterion met

In: Decide: max response of `Cl.Cl.Cl.Cl.Cl.Cl.N.N.N.N.NNNNN.NNNNN.O.O.[Ru].[Ru].[Ru]` strictly below 20%?
Out: criterion met
